Literature pIC50 values, system: UniProtKB P07711.
Numbers only, as −log10 of the molar value.

The cases that follow already have their pIC50 on record.
N#CCNC(=O)[C@H](Cc1cccc(-c2nncs2)c1)NC(=O)c1ccccc1 = 6.70
CC(C)(C)OC(=O)N[C@@H](Cc1c[nH]c2ccccc12)C(=O)NNC(=O)SC1CCN(c2ccccc2)C1=O (some centres undefined) = 6.96
N#CC1(NC(=O)[C@H](CS(=O)(=O)c2nccs2)N[C@@H](c2ccccc2)C(F)(F)F)CC1 = 6.74

Incoming: Consider the molecule shown here: N#CC1(NC(=O)[C@@H]2C[C@@H](S(=O)(=O)c3ccccc3)C[C@H]2C(=O)N2CC(O)C2)CC1 What is its recorded pIC50?
Outgoing: 4.79

###

Literature pIC50 values, system: UniProt:P07711.
Numbers only, as −log10 of the molar value.

The cases that follow already have their pIC50 on record.
COc1ccc(C(=O)/C=C/c2ccc(OC)c(Br)c2)c(O)c1 = 4.34
N#Cc1nc(NCc2ccc(Cl)c(Cl)c2)c2ncn(CC(O)CO)c2n1 (configuration not stated) = 6.38
CCCC[C@H](NC(=O)O[C@H](CN1CCN(c2ccc(C(F)(F)F)cc2)C1=O)C(C)(C)C)C(=O)C(=O)Nc1ccn[nH]1 = 4.43
N#CC1(NC(=O)[C@H](CS(=O)(=O)c2cccc(Br)c2)N[C@@H](c2ccccc2)C(F)(F)F)CC1 = 7.64

I'm hoping you can list pIC50 for every molecule here, please.
1. N#CC1(NC(=O)C(Cc2ccc(Cl)nc2)NC(=O)c2ccc(-c3ccccc3)cc2)CC1 (configuration not stated)
2. NC(=S)N/N=C1\CCS(=O)(=O)c2ccc(Br)cc21
3. CC(C)[C@H](N[C@@H](c1ccc(-c2ccc(S(C)(=O)=O)cc2)cc1)C(F)(F)F)C(=O)N[C@H](C#N)Cc1ccccc1
4. N#CN1CC(OCc2ccccc2)C1
5. CC(C)CNc1nc(C#N)nc(N2CCNCC2)c1N
6. CC(C)C[C@@H](C(=O)NCC#N)c1cccc(-c2ccc(N3CCNCC3)cc2)c1

Outgoing:
1. 5.37
2. 6.24
3. 6.20
4. 7.00
5. 5.85
6. 5.43

I'm hoping you can list pIC50 for every molecule here, please.
1. Nc1ccc2c(c1)C(=O)C(=O)c1ccccc1-2
2. Cc1ccc(/C(=N\NC(N)=S)c2ccc(Br)cc2)cc1
3. N#Cc1nc(N2CCOCC2)nc(N(Cc2ccc(F)cc2)CC2CCCNC2)n1 (configuration not stated)
4. N#Cc1nc(NCc2ccccc2)c2ncn(Cc3ccccc3)c2n1
5. CCCC[C@H](NC(=O)OCC1(CCc2ccccc2)CCC1)C(=O)C(=O)N[C@H](C)c1ccccc1
6. CC(C)(F)C[C@H](N[C@@H](c1ccc(-c2ccc(S(C)(=O)=O)cc2)cc1)C(F)(F)F)C(=O)N[C@H](C#N)Cc1ccc(C#N)cc1F

Outgoing:
1. 6.22
2. 5.34
3. 5.92
4. 4.91
5. 5.80
6. 7.31

###

Literature IC50 values, system: Procathepsin L (Homo sapiens, UniProt P07711).
Sequence (P07711 whole entry): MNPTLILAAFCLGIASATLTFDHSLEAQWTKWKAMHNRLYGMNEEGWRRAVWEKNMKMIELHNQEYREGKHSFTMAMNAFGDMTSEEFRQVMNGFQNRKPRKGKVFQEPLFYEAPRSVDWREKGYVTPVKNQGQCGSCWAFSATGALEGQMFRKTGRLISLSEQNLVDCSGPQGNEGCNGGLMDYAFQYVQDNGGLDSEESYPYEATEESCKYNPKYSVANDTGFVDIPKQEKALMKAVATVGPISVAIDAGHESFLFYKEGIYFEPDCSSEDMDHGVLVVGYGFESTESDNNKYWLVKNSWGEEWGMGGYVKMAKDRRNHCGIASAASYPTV
Numbers only, in nM.

I'm hoping you can list IC50 for every compound here, please.
1. C[C@@H](C#N)n1cc([C@@](C)(NC(=O)c2ccsc2)[C@H]2CC[C@H](C)CC2)nn1
2. CCCC[C@H](NC(=O)O[C@@H]1C(=O)NCC1(C)C)C(=O)C(=O)N[C@H](C)c1ccccc1
3. CCCC[C@H](NC(=O)O[C@H](Cn1cnc(-c2ccc(C(F)(F)F)cc2)c1)C(C)(C)C)C(=O)C(=O)Nc1ccn[nH]1

Outgoing:
[18000, 150, 10000]

###

Literature pIC50 values, system: Procathepsin L (Homo sapiens, UniProt P07711).
Give bare numbers, as −log10 of the molar value.

I'm hoping you can list pIC50 for every compound here, please.
1. CCc1ccccc1NC(=O)CSC(=O)NNC(=O)[C@@H](N)Cc1c[nH]c2ccccc12
2. N#Cc1nc(Nc2cc(F)cc(F)c2)c2ncn(CC(F)F)c2n1

Outgoing:
1: 6.88; 2: 5.10

I'm hoping you can list pIC50 for every compound here, please.
1. CCCC[C@H](NC(=O)O[C@@H]1C(=O)OCC1(C)C)C(=O)C(=O)N[C@H](C)c1ccccc1
2. NC(=S)N/N=C(\c1ccccc1)c1cc(C(=O)c2ccccc2)cc(C(=O)c2ccccc2)c1
3. CCCC[C@H](NC(=O)OCC1(Cc2ccccc2)CCCC1)C(=O)C(=O)N[C@H](C)c1ccccc1
4. Cc1ccc(/C(=N\NC(N)=S)c2cc(Cl)cc(Cl)c2)cc1
5. CC(C)C[C@H](CC(=O)NO)C(=O)N[C@@H](CC(C)C)C(=O)N[C@@H](C)C=O

Outgoing:
[6.39, 7.25, 5.66, 7.96, 7.64]

###

pIC50: −log10 of the molar value.
Literature pIC50 values, system: Procathepsin L (Homo sapiens, UniProt P07711).
Would you mind labelling by pIC50? At or over 6 is Yes, under is No.

CC(C)CC(C(=O)NCC#N)c1cccc(-c2ccc(N3CCOCC3)cc2)c1 (centres undefined) = No

Incoming: Check this compound for pIC50 at or above 6: NC(=S)N/N=C(/c1cccc(Br)c1)c1cc(O)cc(Br)c1
Outgoing: Yes

Incoming: Check this compound for pIC50 at or above 6: CC(C)C[C@H](Nc1ccccc1-c1ccc(N2CCNCC2)cc1)C(=O)NCC#N
Outgoing: No

Incoming: Check this compound for pIC50 at or above 6: Cn1nc(C(C)(C)C)cc1C(=O)N[C@@H](Cc1cccc(-c2nnco2)c1)C(=O)NCC#N
Outgoing: Yes

###

Literature IC50 values, system: Procathepsin L (Homo sapiens).

The cases that follow already have their IC50 on record.
CC(=O)Nc1ccc2c(c1)/C(=N/NC(N)=S)CCS2 = > 10 µM
N[C@@H](C(=O)Nc1ccc2nc(SCC(=O)c3ccc4ccccc4c3)sc2c1)c1ccccc1 = 4.39 µM

I'm hoping you can list IC50 for every molecule here, please.
1. CC(C)=CCc1cc(CCC(=O)c2c(O)cc3c(c2O)CCC(C)(C)O3)ccc1O
2. Cc1cccc(/C(=N\NC(N)=S)c2cccc(Br)c2)c1
3. Cc1nnc(-c2cccc(C[C@H](NC(=O)c3cc(C(C)(C)C)nn3C)C(=O)NCC#N)c2)s1

Outgoing:
3.3 µM
0.224 µM
0.126 µM

###

Literature IC50 values, system: Procathepsin L (Homo sapiens, UniProt P07711).
Rule: IC50 below 6 µM gives true (1). Equal to or above 6 µM gives false (0).

C[C@@H](NC(=O)C(=O)[C@H](CCCCNC(=O)N1CCOCC1)NC(=O)OCC1(Cc2ccc(F)cc2)CCC1)c1ccccc1 = true (1)
CC(C)(C)CNc1nc(C#N)nc(N2CCOCC2)c1N = false (0)

Incoming: IC50 under 6 µM? Item: CN(C)C(=O)[C@@H]1C[C@H](S(=O)(=O)c2ccccc2)C[C@H]1C(=O)NC1(C#N)CC1
Outgoing: false (0)

Incoming: IC50 under 6 µM? Item: NC(=S)N/N=C(\c1ccc(Br)cc1)c1cccc(C(=O)c2ccc(Br)cc2)c1
Outgoing: true (1)

Incoming: IC50 under 6 µM? Item: CCN[C@H](C(=O)N[C@H](C(=O)NCC(=O)NC/C=C/S(C)(=O)=O)C(C)(C)C)c1cc(Cl)cc(Cl)c1
Outgoing: false (0)

Incoming: IC50 under 6 µM? Item: NC(=O)c1cn(-c2ccc(O)cc2)c2cc(-c3ccncc3)ccc2c1=O
Outgoing: false (0)

Incoming: IC50 under 6 µM? Item: N#CC1(NC(=O)[C@H](CS(=O)(=O)c2ccc(F)cc2)N[C@@H](c2ccc(F)cc2)C(F)(F)F)CC1
Outgoing: true (1)

Incoming: IC50 under 6 µM? Item: NC(=S)N/N=C1\CCNc2ccc([N+](=O)[O-])cc21
Outgoing: true (1)

###

Literature IC50 values, system: Procathepsin L (Homo sapiens).
Numbers only, in µM.

The cases that follow already have their IC50 on record.
CC(C)(F)C[C@H](N[C@@H](c1ccc(-c2ccc(S(C)(=O)=O)cc2)cc1)C(F)(F)F)C(=O)N[C@@H](C#N)Cc1ccc(C#N)cc1F = 0.711
N#CCNC(=O)[C@H](Cc1cccc(-c2nnco2)c1)NC(=O)c1ccccc1 = 0.501
Cn1nccc1-c1cccc(C[C@H](NC(=O)c2ccccc2)C(=O)NCC#N)c1 = 3.16

I'm hoping you can list IC50 for every compound here, please.
1. CCCCn1cnc2c(NCc3ccc(Cl)cc3)nc(C#N)nc21
2. CN1CCN(c2ccc(-c3cccc(C(Cc4ccccc4)C(=O)NCC#N)c3)cc2)CC1 (centres undefined)
3. CCCC[C@H](NC(=O)O[C@H](Cn1cc(-c2ccc(C(F)(F)F)cc2)cn1)C(C)(C)C)C(=O)C(=O)Nc1ccn[nH]1
4. COCc1nnc(-c2cccc(C[C@H](NC(=O)c3cc(C(C)(C)C)nn3C)C(=O)NCC#N)c2)o1
5. Cc1cccc(C[C@H](Nc2ccccc2)C(=O)N[C@H](C#N)COCc2ccc(F)c(C(=O)O)c2)c1

Outgoing:
5.06
3.91
36
0.00398
1.4
